Data origin, for the record: patent US12448390B1

Biological target: a-glucosidase (Saccharomyces cerevisiae, UniProt P53341)
Sequence (P53341 whole entry): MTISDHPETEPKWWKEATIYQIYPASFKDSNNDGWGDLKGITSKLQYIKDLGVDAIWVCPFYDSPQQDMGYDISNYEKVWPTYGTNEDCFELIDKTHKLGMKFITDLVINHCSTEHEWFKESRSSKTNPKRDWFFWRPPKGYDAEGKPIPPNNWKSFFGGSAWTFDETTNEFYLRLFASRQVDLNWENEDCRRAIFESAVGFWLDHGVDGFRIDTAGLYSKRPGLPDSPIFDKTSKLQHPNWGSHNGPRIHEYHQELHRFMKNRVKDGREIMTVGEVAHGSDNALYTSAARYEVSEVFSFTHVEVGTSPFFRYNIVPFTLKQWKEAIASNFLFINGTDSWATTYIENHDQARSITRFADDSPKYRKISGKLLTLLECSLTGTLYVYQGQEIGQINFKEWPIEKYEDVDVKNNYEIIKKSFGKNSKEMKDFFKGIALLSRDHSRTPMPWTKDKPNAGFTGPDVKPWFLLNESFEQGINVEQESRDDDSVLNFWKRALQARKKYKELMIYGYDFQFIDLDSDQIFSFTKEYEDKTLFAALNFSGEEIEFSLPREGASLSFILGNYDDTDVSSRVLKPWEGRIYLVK
Assay type: biochemical
Conditions: compound at 250 μmol/L; 0.5 U/ml enzyme, 0.6 mM pNaGP, pH 6.8, 37° C.
property: Inhibition rate % (%)
API: value field is a number in %; no unit string.

Observe how each entry below is paired with its result.
| smiles representation | system tested | Inhibition rate % (%) |
| --- | --- | --- |
| Cc1ncc(CO)c2cc(C(=O)Nc3ccc(F)c(Cl)c3)c(=Nc3cc(O)cc(CO)c3)oc12 | a-glucosidase (Saccharomyces cerevisiae, UniProt P53341) | 31.045 |
| Cc1ncc(CO)c2cc(C(=O)Nc3ccc(F)c(Cl)c3)c(=Nc3ccc(Cl)cc3)oc12 | a-glucosidase (Saccharomyces cerevisiae, UniProt P53341) | 62.651 |
| Cc1ncc(CO)c2cc(C(=O)Nc3ccc(F)c(Cl)c3)c(=Nc3ccc(F)c(F)c3)oc12 | a-glucosidase (Saccharomyces cerevisiae, UniProt P53341) | 69.628 |
| Cc1ncc(CO)c2cc(C(=O)Nc3ccc(F)c(Cl)c3)c(=Nc3ccc(Br)c(Br)c3)oc12 | a-glucosidase (Saccharomyces cerevisiae, UniProt P53341) | 64.035 |
| Cc1ncc(CO)c2cc(C(=O)Nc3ccc(F)cc3)c(=Nc3ccc(F)cc3)oc12 | a-glucosidase (Saccharomyces cerevisiae, UniProt P53341) | 95.56 |

# molecule `Cc1ncc(CO)c2cc(C(=O)Nc3ccc(F)cc3)c(=Nc3ccc(C(F)(F)F)cc3)oc12` ; its Inhibition rate % = 13.832

# molecule `Cc1ncc(CO)c2cc(C(=O)Nc3ccc(F)c(Cl)c3)c(=Nc3cc(F)cc(F)c3)oc12` ; its Inhibition rate % = 99.833

# molecule `Cc1ncc(CO)c2cc(C(=O)Nc3ccc(F)c(F)c3)c(=Nc3cc(O)cc(CO)c3)oc12` ; its Inhibition rate % = 13.978

# molecule `Cc1ncc(CO)c2cc(C(=O)Nc3ccc(F)c(Cl)c3)c(=Nc3ccc(F)cc3)oc12` ; its Inhibition rate % = 22.127
